Source: PubChem BioAssay (NCI)

tested on: MALME-3M melanoma; test: NCI-60 one-dose screen, 48 h; conditions: 10 µM unless noted
Compounds without any hit were thinned out: in the full panel of roughly 83,000, 20% have a hit. Activity calls are given as the source filed them. The calls were made as follows: active = growth percent below 10; inactive = the rest.
// allowed return values: 1 (active), -1 (inactive)

The following compounds have reported results that may help.
>  <compound>
CCCCCCCCCCC[C@@H](C[C@H]1OC(=O)[C@H]1CCCCCC)OC(=O)[C@@H](CC(C)C)NC=O

>  <categoryLabel>
-1

$$$$
>  <compound>
Fc1ccc([C@@H]2CCNC[C@H]2COc2ccc3c(c2)OCO3)cc1

>  <categoryLabel>
-1

$$$$
>  <compound>
Cc1ccccc1NC(=O)c1cc2ccccc2cc1O

>  <categoryLabel>
1

$$$$

*Q* What was the test verdict on CC[N+](C)(CC)CCCC(C)Nc1ccnc2cc(Cl)ccc12 (stereo unspecified) ?
*A* -1

*Q* What was the test verdict on `COc1cc(/C=C/C(=O)N2CCN(C(=O)/C=C/c3ccccc3)CC2)cc(OC)c1OC` ?
*A* -1

*Q* What was the test verdict on `O=C(Nc1ncc([N+](=O)[O-])s1)c1cccc([N+](=O)[O-])c1` ?
*A* -1

*Q* What was the test verdict on CCOc1cccc(C2CC(=O)Nc3cc4c(cc32)OCO4)c1 (stereo unspecified) ?
*A* -1

*Q* What was the test verdict on `COC(=O)[C@]12CC[C@@H](C)[C@H](C)[C@@H]1C1=CC[C@@H]3[C@@]4(C)C=C(O)C(=O)[C@@]5(C)COC(=C54)C[C@@]3(C)[C@]1(C)CC2` ?
*A* 1

*Q* What was the test verdict on `COc1ccc(-n2nnc(C(=O)O)c2-c2cc(OC)c(OC)c(OC)c2)cc1` ?
*A* -1

----------
system: A498 renal; test: NCI-60 one-dose screen, 48 h; details: 10 µM unless noted
About 83,000 compounds went through this panel and 20% of them were active in at least one assay; those are over-represented in the sample as a whole. Calls of active or inactive are those of the source. The calls were made as follows: active = growth percent below 10; inactive = the rest.
// allowed return values: 1.0 = active, 0.0 = inactive

The following compounds have reported results that may help.
>  <compound>
COc1ccc(-c2c(N)noc2-c2cc(OC)c3c(c2)OCCO3)cc1

>  <categoryLabel>
1.0

$$$$
>  <compound>
Cc1ccc(NC(=O)CSc2nnc3n(Cc4ccccc4)c(=O)c4c(C)c(C(N)=O)sc4n23)cc1

>  <categoryLabel>
1.0

$$$$
>  <compound>
O=Cc1c[nH]c2ccc(NC(=O)OCc3ccccc3)cc12

>  <categoryLabel>
0.0

$$$$
>  <compound>
COc1ccc(-c2cc(C(=O)Nc3nc4cc(C)c(C)cc4s3)nc3cc(-c4ccccc4)nn23)cc1OC

>  <categoryLabel>
0.0

$$$$
>  <compound>
N#CCNc1ccccc1N

>  <categoryLabel>
0.0

$$$$

*Q* What was the test verdict on `O[C@@H]1Cc2ccc3ccccc3c2N[C@H](c2ccoc2)C1` ?
*A* 0.0

*Q* What was the test verdict on `COc1ccc(Cn2cc3c(c2-c2ccccc2)CCc2cncnc2-3)cc1` ?
*A* 0.0

*Q* What was the test verdict on CCC1(c2ccccc2)Oc2ccccc2-n2c(C#N)c3ccccc3c2C1=O (stereo unspecified) ?
*A* 0.0

*Q* What was the test verdict on `CCSc1nnc2n(Cc3ccccc3)c(=O)c3c(C)c(C(N)=O)sc3n12` ?
*A* 0.0

*Q* What was the test verdict on CCC(C)CC(CC)NCCN1CCN(C(CC)CC(C)CC)C1=S (stereo unspecified) ?
*A* 0.0

*Q* What was the test verdict on `O=c1c(O)cccn1CCCNCCCN(CCCn1cccc(O)c1=O)CCCn1cccc(O)c1=O` ?
*A* 0.0
